Where do the numbers come from? From patent US20260125382A1.

System Tested: CDK9 (Homo sapiens)
Construct: endogenous in cells; host or cells: MDA-MB-231
Sequence (P50750 whole entry): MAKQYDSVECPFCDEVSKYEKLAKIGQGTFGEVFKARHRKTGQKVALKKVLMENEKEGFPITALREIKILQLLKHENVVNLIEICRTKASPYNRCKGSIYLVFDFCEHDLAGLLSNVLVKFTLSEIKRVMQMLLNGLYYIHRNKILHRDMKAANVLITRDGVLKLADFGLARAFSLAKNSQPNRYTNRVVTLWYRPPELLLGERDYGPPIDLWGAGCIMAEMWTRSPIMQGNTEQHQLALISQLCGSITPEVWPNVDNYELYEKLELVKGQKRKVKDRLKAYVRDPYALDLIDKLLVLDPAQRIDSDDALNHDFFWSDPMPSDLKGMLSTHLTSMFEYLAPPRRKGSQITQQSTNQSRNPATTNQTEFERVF
Protocol: CDK protein degradation activity (Western blotting), CDK9
Format: cell-based
Measurement Conditions: MDA-MB-231 cells, 0.1 μM, 16 hours, Western blot
Assay Metric: Enzyme degradation CDK9 (% remaining) @ 0.1 μM

Which Enzyme degradation CDK9 (% remaining) @ 0.1 μM is reported with CDK9 (Homo sapiens) for this entry: `O=C1CC[C@H](N2C(=O)c3cccc(NCC(=O)N4CCC(CN5CCN(c6ccc(Nc7ncnc8c7ncn8[C@H]7C[C@@H](NC(=O)c8cccc(C(F)(F)F)n8)C7)cc6)CC5)CC4)c3C2=O)C(=O)N1` ?
0/0/0%

Please give the result for O=C1CCC(N2C(=O)c3cccc(OCC(=O)N4CCC(CCCN5CCN(c6ccc(Nc7ncnc8c7ncn8[C@H]7C[C@@H](NC(=O)Cc8ccccc8)C7)cc6)CC5)CC4)c3C2=O)C(=O)N1 (some centres unmarked) too.
50%

Would you kindly repeat that for O=C1CCC(N2C(=O)c3cccc(OCC(=O)N4CCC5(CC4)CC(N4CCN(c6ccc(Nc7ncnc8c7ncn8[C@H]7C[C@@H](NC(=O)Cc8ccccc8)C7)cc6)CC4)C5)c3C2=O)C(=O)N1 (some centres unmarked) ?
0/0/0%

Try the compound O=C1CC[C@H](N2C(=O)c3ccc(N4CCC5(CC4)CC(N4CCN(c6ccc(Nc7ncnc8c7ncn8C7CC(NC(=O)c8c(Cl)cccc8Cl)C7)cc6)CC4)C5)cc3C2=O)C(=O)N1 (some centres unmarked)
0/0/0%

# repeat for `O=C1CC[C@H](N2C(=O)c3ccc(N4CC(C(=O)N5CCC(N6CCN(c7ccc(Nc8ncnc9c8ncn9[C@H]8C[C@@H](NC(=O)Cc9ccccc9)C8)cc7)CC6)CC5)C4)cc3C2=O)C(=O)N1`
0/0/0%

---

System Tested: CDK2 (Homo sapiens, UniProt P24941)
Construct: endogenous in cells; host or cells: MDA-MB-231
Protocol: CDK protein degradation activity (Western blotting), CDK2
Assay type: cell-based
Measurement Conditions: MDA-MB-231 cells, 10 μM, 16 hours, Western blot
Assay Metric: Enzyme degradation CDK2 (% remaining) @ 10 μM (%)

Please look up its Enzyme degradation CDK2 (% remaining) @ 10 μM: O=C1CC[C@H](N2C(=O)c3ccc(NCC(=O)N4CCN(CCCN5CCN(c6ccc(Nc7ncnc8c7ncn8C7CC(NC(=O)Cc8ccccc8)C7)cc6)CC5)CC4)cc3C2=O)C(=O)N1 (stereo partly drawn) [Compound 233]
70

Now try Cc1cccc(C(=O)N[C@H]2C[C@@H](n3cnc4c(NC5CCN(CCOC6CCN(C(=O)COc7ccc8c(c7)C(=O)N([C@H]7CCC(=O)NC7=O)C8=O)CC6)CC5)ncnc43)C2)n1 [Compound 43] .
70

---

System Tested: CDK2 (Homo sapiens)
Construct: endogenous in cells; host or cells: MDA-MB-231
Protocol: CDK protein degradation activity (Western blotting), CDK2
Assay type: cell-based
Measurement Conditions: MDA-MB-231 cells, 1 μM, 16 hours, Western blot
Assay Metric: Enzyme degradation CDK2 (% remaining) @ 1 μM (%)

I. O=C1CC[C@H](N2C(=O)c3cccc(NCC(=O)N4CCC(CN5CCC(CNc6ncnc7c6ncn7C6CC(NC(=O)Cc7ccccc7)C6)CC5)CC4)c3C2=O)C(=O)N1 (some centres unmarked)
II. O=C1CC[C@H](n2nnc3ccc(N4CCC(CN5CCN(c6ccc(Nc7ncnc8c7ncn8C7CC(NC(=O)c8cccc(Cl)n8)C7)cc6)CC5)CC4)cc3c2=O)C(=O)N1 (some centres unmarked)
Form: Entry with minimum Enzyme degradation CDK2 (% remaining) @ 1 μM (choose one): I / II State the label of the item chosen.
II
